Test system: U251 CNS
Test: NCI tumour cell line growth inhibition, 48 h
Provide the reported TGI of each item.

- molecular string: "O=S(=O)(O)c1cc(N=[N+]([O-])c2ccc(N=Nc3ccccc3)cc2S(=O)(=O)O)ccc1/C=C/c1ccc(N=[N+]([O-])c2ccc(N=Nc3ccccc3)cc2S(=O)(=O)O)cc1S(=O)(=O)O"
  data value: "> 100 µM"
- molecular string: "C#C[C@@H](CCCC)OC(=O)N[C@H](C)c1ccccc1"
  data value: "> 100 µM"
- molecular string: "O=S(=O)(Nc1ccc(Cl)c(Cl)c1)c1ccc(-c2cnc(C3CC3)o2)cc1"
  data value: "16.3 µM"

State the recorded TGI for every item in the following list.
1. COC(=O)[C@@H](C)C[C@H](Cc1ccccc1)NC(=O)c1csc([C@@H](C[C@H](C(C)C)N(C)C(=O)[C@@H](NC(=O)[C@H]2CCCCN2C)C(C(F)(F)F)C(F)(F)F)OC(C)=O)n1
2. CC(C)=C=CP(=O)(O)c1ccccc1

1. > 16.7 µM
2. > 100 µM

State the recorded TGI for every item in the following list.
1. Cc1cc(O)c(C(C)C)cc1C(=S)Nc1ccc(Cl)cc1
2. Cc1cc(S(=O)(=O)Nc2n[nH]c(Nc3ccccc3)n2)c(SSc2cc(Cl)c(C)cc2S(=O)(=O)Nc2n[nH]c(Nc3ccccc3)n2)cc1Cl

["27.8 µM", "> 100 µM"]

Entry N#CC(C#N)C(c1ccccc1)c1ccccc1 needs its TGI filled in; supply it.
> 100 µM
